Values compiled from ChEMBL document CHEMBL3758163.

systemUnderTest: Serine/threonine-protein kinase Nek1 (Homo sapiens) (UniProt Q96PY6)
Sequence (whole entry): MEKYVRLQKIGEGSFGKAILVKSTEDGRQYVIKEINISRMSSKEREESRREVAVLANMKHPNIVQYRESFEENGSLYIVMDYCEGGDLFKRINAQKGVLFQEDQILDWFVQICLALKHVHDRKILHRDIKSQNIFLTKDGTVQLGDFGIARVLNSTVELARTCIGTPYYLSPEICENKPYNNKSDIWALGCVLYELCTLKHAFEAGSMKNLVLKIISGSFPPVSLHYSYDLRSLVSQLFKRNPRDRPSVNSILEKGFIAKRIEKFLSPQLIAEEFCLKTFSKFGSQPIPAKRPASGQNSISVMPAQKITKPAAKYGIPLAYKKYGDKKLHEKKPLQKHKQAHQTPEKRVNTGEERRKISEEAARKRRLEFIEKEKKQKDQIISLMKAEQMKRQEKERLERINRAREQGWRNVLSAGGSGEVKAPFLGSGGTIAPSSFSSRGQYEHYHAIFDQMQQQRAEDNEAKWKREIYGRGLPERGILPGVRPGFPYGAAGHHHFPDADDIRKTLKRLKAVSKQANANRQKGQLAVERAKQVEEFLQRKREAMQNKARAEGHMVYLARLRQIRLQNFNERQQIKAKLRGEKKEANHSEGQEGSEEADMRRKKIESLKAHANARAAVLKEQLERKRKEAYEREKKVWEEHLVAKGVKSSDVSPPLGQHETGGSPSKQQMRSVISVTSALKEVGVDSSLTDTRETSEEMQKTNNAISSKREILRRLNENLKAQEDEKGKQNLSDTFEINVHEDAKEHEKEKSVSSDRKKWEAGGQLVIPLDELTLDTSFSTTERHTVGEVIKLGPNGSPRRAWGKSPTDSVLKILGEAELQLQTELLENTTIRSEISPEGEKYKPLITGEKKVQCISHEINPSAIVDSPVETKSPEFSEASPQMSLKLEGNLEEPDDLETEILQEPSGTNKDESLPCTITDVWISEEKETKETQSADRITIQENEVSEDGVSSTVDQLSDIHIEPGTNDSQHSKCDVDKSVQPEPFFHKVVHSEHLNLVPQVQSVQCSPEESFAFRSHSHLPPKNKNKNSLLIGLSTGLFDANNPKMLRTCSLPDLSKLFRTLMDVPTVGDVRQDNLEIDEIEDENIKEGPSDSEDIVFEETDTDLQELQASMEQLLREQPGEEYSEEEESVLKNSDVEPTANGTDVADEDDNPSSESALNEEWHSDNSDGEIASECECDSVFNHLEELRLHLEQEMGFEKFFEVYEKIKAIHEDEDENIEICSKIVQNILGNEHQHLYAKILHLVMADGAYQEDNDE
procedureText: Inhibition of NEK1 (unknown origin) at 500 nM
Hi there, I'd appreciate the recorded inhibition for every entry that follows.

Here's what some known entries look like.
{"columns": ["structureAsSmiles", "assayMetric", "result"],
 "data": [
  ["C[C@@H](Nc1ncnc2sc(-c3ccc(C(=O)NCCN(C)C)cc3)cc12)c1ccccc1", "inhibition", "4%"],
  ["COc1cc(CO)ccc1-c1cc2c(N[C@H](C)c3ccccc3)ncnc2s1", "inhibition", "1%"]
]}

I'm hoping you can list inhibition for every compound here, please.
1. C#Cc1cccc(Nc2ncnc3cc(OCCOC)c(OCCOC)cc23)c1
2. COc1cc(CO)ccc1-c1cc2c(Nc3ccccc3)ncnc2s1
3. C[C@@H](Nc1ncnc2sc(-c3ccccc3C(N)=O)cc12)c1ccccc1

["-8%", "-5%", "3%"]
